- procedureDetails: Lethal dose test with yohimbine (potentiation of yohimbine 30 mg/kg i.p.), percentage mortality
- Assay type: in vivo, mice
- conditionNotes: mouse, in vivo; yohimbine lethality potentiation, mice; read-out: relationship between the mean effective p.o. and i.p. doses (oral bioavailability)
Let's look at some molecules and their measured ratio of mean effective p.o. to i.p. dose.
# output: bare number, no unit

Worked cases, ratio of mean effective p.o. to i.p. dose given:
Return the recorded ratio of mean effective p.o. to i.p. dose value; entry: CS(=O)(=O)O.Fc1cc2c(c(OC[C@H]3CNCCO3)c1)NCCC2 [Example 1α, monomethanesulphonate] 3.16

Return the recorded ratio of mean effective p.o. to i.p. dose value; entry: c1cc2c(c(OCC3CNCCO3)c1)NCCC2 (racemic) [reference product, reference compound] 4.25

From here, focus on the item given below.
Return the recorded ratio of mean effective p.o. to i.p. dose value; entry: Fc1ccc(OC[C@H]2CNCCO2)c2c1CCCN2 [Example 2α, monomethanesulphonate] 1.77
